PROCEDURE_SUMMARY: amyloid nucleation score (Sup35N fusion, yeast selection) (log enrichment); library NNK1; higher = more nucleation; inactive = no reads after selection;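 further: zero at mode of non-aggregating sequences after 7 days selection at 30°C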
// label 0 strictly below 0.1 in amyloid nucleation score; label 1 otherwise

Below are worked cases with known answers.
- SUBSTANCE: "SVIVMVCVGL"
  LABEL_VALUE: "label 1"
- SUBSTANCE: "DRMLHKAI"
  LABEL_VALUE: "label 0"
- SUBSTANCE: "SLPRPIMFSLVVIILYNFVR"
  LABEL_VALUE: "label 0"
- SUBSTANCE: "TYGRASRALGDFRQITRVAS"
  LABEL_VALUE: "label 0"
- SUBSTANCE: "TSSTRILISTTELVRNYCYC"
  LABEL_VALUE: "label 1"

Moving on to the next substance.
Given the entry ELLMERMRQLVFPPIIYRLN , answer whether its amyloid nucleation score meets or surpasses 0.1.
label 1
